# Test system: CN0375-F725-PDC KRAS spheroid viability
# assay-details: Anticancer human tumor CN0375-F725-PDC patient-derived colon carcinoma cell line growth inhibition [KRAS2]
# condition-context: second compound 0.316 µM; first compound 0.1 µM; hits give low values; spheroids with HUVEC and MSC
Parameter viability, T/C: see the listing below.

[
  {
    "compound": "CCN1CCN(Cc2ccc(Nc3ncc(F)c(-c4cc(F)c5nc(C)n(C(C)C)c5c4)n3)nc2)CC1 + CC1OCC2(CCN(c3cnc(Sc4ccnc(N)c4Cl)c(N)n3)CC2)C1N",
    "display-unit": "%",
    "viability, T/C": 74.6
  },
  {
    "compound": "COC(=O)c1ccc2c(C(=Nc3ccc(N(C)C(=O)CN4CCN(C)CC4)cc3)c3ccccc3)c(O)[nH]c2c1 + COc1cc2nc(C)nc(NC(C)c3cc(N)cc(C(F)(F)F)c3)c2cc1OC1CCOC1",
    "display-unit": "%",
    "viability, T/C": 99.5
  },
  {
    "compound": "COc1cc(Nc2ncc3c(n2)-c2ccc(Cl)cc2C(c2c(F)cccc2OC)=NC3)ccc1C(=O)O + C=CC(=O)N1CCN(c2nc(OCC3CCCN3C)nc3c2CCN(c2cccc4cccc(C)c24)C3)CC1CC#N",
    "display-unit": "%",
    "viability, T/C": 101
  },
  {
    "compound": "CC(=O)OC12COC1CC(O)C1(C)C(=O)C(O)C3=C(C)C(OC(=O)C(O)C(NC(=O)OC(C)(C)C)c4ccccc4)CC(O)(C(OC(=O)c4ccccc4)C21)C3(C)C (stereo not given) + CC1OCC2(CCN(c3cnc(Sc4ccnc(N)c4Cl)c(N)n3)CC2)C1N",
    "display-unit": "%",
    "viability, T/C": 79.4
  },
  {
    "compound": "CC1OCC2(CCN(c3cnc(Sc4ccnc(N)c4Cl)c(N)n3)CC2)C1N (stereo not given) + COc1cc2nc(C)nc(NC(C)c3cc(N)cc(C(F)(F)F)c3)c2cc1OC1CCOC1",
    "display-unit": "%",
    "viability, T/C": 91.7
  }
]

* * *

# Tested on: CN0375-F725-PDC KRAS spheroid viability
# assay-details: Anticancer human tumor CN0375-F725-PDC cell line growth inhibition [KRAS2];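 note: spheroids exposed to agents for 7 days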
# condition-context: second compound 0.316 µM; first compound 0.316 µM; hits give low values; spheroids with HUVEC and MSC
# Description: Multicellular complex tumor spheroid response to RAS pathway inhibitors in combination with a targeted agents in patient-derived cell lines with oncogenic KRAS variants from multiple cancer types A high-throughput screen of multi-cell type tumor spheroids was designed to identify active combinations of targeted small molecules and KRAS pathway inhibitors. […] Compounds. […] If the clinical Cmax for an agent had not been determined, the highest concentration tested was 10 microM. […]
# if measured viability, T/C < 80%: Yes  # else: No

[
  {
    "molecule": "COc1cc2nccc(Oc3ccc(NC(=O)C4(C(=O)Nc5ccc(F)cc5)CC4)cc3)c2cc1OC + CNCc1ccccc1-c1csc(C(C)Nc2nc(C)nc3cc(OC)c(OC)cc23)c1",
    "target-under-test": "CN0375-F725-PDC KRAS spheroid viability",
    "assigned-label": "Yes"
  },
  {
    "molecule": "COC(=O)c1ccc2c(C(=Nc3ccc(N(C)C(=O)CN4CCN(C)CC4)cc3)c3ccccc3)c(O)[nH]c2c1 + CNCc1ccccc1-c1csc(C(C)Nc2nc(C)nc3cc(OC)c(OC)cc23)c1",
    "target-under-test": "CN0375-F725-PDC KRAS spheroid viability",
    "assigned-label": "No"
  },
  {
    "molecule": "COc1cc(Nc2ncc3c(n2)-c2ccc(Cl)cc2C(c2c(F)cccc2OC)=NC3)ccc1C(=O)O + C=CC(=O)N1CCN(c2nc(=O)n(-c3c(C)ccnc3C(C)C)c3nc(-c4c(O)cccc4F)c(F)cc23)C(C)C1",
    "target-under-test": "CN0375-F725-PDC KRAS spheroid viability",
    "assigned-label": "No"
  },
  {
    "molecule": "CC1(C)CCC(CN2CCN(c3ccc(C(=O)NS(=O)(=O)c4ccc(NCC5CCOCC5)c([N+](=O)[O-])c4)c(Oc4cnc5[nH]ccc5c4)c3)CC2)=C(c2ccc(Cl)cc2)C1 + C=CC(=O)N1CCN(c2nc(OCC3CCCN3C)nc3c2CCN(c2cccc4cccc(C)c24)C3)CC1CC#N",
    "target-under-test": "CN0375-F725-PDC KRAS spheroid viability",
    "assigned-label": "No"
  }
]
